The measured values listed here are drawn from patent US20230348453A1.

# Measurement description: Screening PK in mice after 30 mg/kg po
# Details: mouse, plasma, po, 30 mg/kg
Metric name: log10(Cmax at 2 h) (log10 of the value in ng/mL)
A value of 2 here means Cmax at 2 h of 100 in ng/mL, since values are log10.

Please review the entries below; each comes with its answer.
• Cc1nc(Nc2ncc(C(=O)Nc3c(CF)csc3Cl)s2)cc(N2CCN(CCO)CC2)n1 = 2.95
• Cc1nc(Nc2ncc(C(=O)Nc3c(C(F)F)csc3Cl)s2)cc(N2CCN(CCO)CC2)n1 = 3.08
• Cc1nc(Nc2ncc(C(=O)Nc3c(CF)csc3Cl)s2)cc(N2CCCN(C)CC2)n1 = 2.69
• Cc1nc(Nc2ncc(C(=O)Nc3c(CF)csc3Cl)s2)cc(N2CCN(C)CC2)n1 = 2.63
• Cc1nc(Nc2ncc(C(=O)Nc3c(Cl)ccnc3C)s2)cc(N2CCN(CCO)CC2)n1 = 1.75

// moving on: another record for log10(Cmax at 2 h)
Prompt line: Entry Cc1nc(Nc2ncc(C(=O)Nc3c(CF)csc3Cl)s2)cc(N2CCN(C)C(C)C2)n1 (racemic) : reported log10(Cmax at 2 h) = ?
Response line: 2.57
